B1: LINE1-full (parent)
chain: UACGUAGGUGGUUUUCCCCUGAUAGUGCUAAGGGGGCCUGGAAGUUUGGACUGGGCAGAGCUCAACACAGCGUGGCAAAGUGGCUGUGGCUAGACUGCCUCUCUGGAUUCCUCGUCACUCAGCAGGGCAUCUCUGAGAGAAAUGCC

Variants of: B1
Assay: self-cleavage, relative activity (ratio to wild type); higher = more cleavage; in vitro, sequencing; the parent is a self-cleaving ribozyme
readout: self-cleavage
Number only, please.

Illustrative cases are given below, each with its answer.
ordered-residues	self-cleavage
UACGUAGGUGGUUUUCCCCUGAUAGUGCUAAGGGGGCCUGGAAGUAUGGACUGGGCAGAGCUCAACACAGCGUGGCAAAGUGGCUGUGGCUAGACUGCCUCUCUGGAUUCCUCGUCACUCAGCAGGGCAUCUCUGAGGGAAAUGCC	1.66
UACGUAGGUGGUUUUCCCCUGAUAGUGCUAAGGGGGCCUGGAAGUUUGGACCGGGCAGAGCUCAACACAGCGUGGCAAAGUGGCUGUGGCUAGACUGCCUCUCUGGAUUCCUCGUCACUCAGCAGGGCAUCUCUGAAAGAAAUGCC	0.89
UACGUAGGUGGUUUUCCCCUGAUAGUGCUAAGGGGGCCUGGAAGUUUGGACUGGGCAGAGCUCUACACAGCGUGGCGAAGUGGCUGUGGCUAGACUGCCUCUCUGGAUUCCUCGUCACUCAGCAGGGCAUCUCUGAGAGAAAUGCC	0.75
UACGUAGGUGGUUUUCCCCUGGUAGUGCUAAGGGGGCCUGGAAGUUUGGACUGGGCAGAGCUCAACACAGCGUGGCAAAGUGGCUGUGGCUAGACUGCCUCUCUGGGUUCCUCGUCACUCAGCAGGGCAUCUCUGAGAGAAAUGCC	0.82
UACGUAGGUGGUUUUCCCCUGAUAGUGCUAAGGGGGCCUGGACGCUUGGACUGGGCAGAGCUCAACACAGCGUGGCAAAGUGGCUGUGGCUAGACUGCCUCUCUGGAUUCCUCGUCACUCAGCAGGGCAUCUCUGAGAGAAAUGCC	0.51
UACGUAGGUGGUUUUCCCCUGAUGGUGCUAAGGGGGCCUGGAAGUUUGGACUGGGCAGAGCUCAACACAGCGUGGCAAAGUGGCUGUGGCUAGACUGCCUCUCUGGAUUCCUCGUCUCUCAGCAGGGCAUCUCUGAGAGAAAUGCC	1.09

Quick one: self-cleavage for UACGUAGGUGGUUUUCCCCUGAUAGUGCUAAGGGGGCCUGGAAGUUUGGACUGGGCAGAGCUCAACACAGCGUAGCAAAGUGGCUGUGGCUAGACUGCCUCUCCGGAUUCCUCGUCACUCAGCAGGGCAUCUCUGAGAGAAAUGCC ? 1.34

Quick one: self-cleavage for UACGUAGGUGGUUUUCCCCUGAUAGUGCUAAGGGGGCCUGGAAGUUUGGACUGGGCAGAGCUCAACCCAGCGUGGCAAAGUGGCUGUGGCUAGACUGCCUCUCUGGAUUCCUCGUCACUCAGCAGGGCAUCUCCGAGAGAAAUGCC ? 0.09

Quick one: self-cleavage for UACGUAGGUGGUUUUCCCUUGAUAGUGCUAAAGGGGCCUGGAAGUUUGGACUGGGCAGAGCUCAACACAGCGUGGCAAAGUGGCUGUGGCUAGACUGCCUCUCUGGAUUCCUCGUCACUCAGCAGGGCAUCUCUGAGAGAAAUGCC ? 0.87

Quick one: self-cleavage for UACGUAGGUGGAAUUCCCCUGAUAGUGCUAAGGGGGCCUGGAAGUUUGGACUGGGCAGAGCUCAACACAGCGUGGCAAAGUGGCUGUGGCUAGACUGCCUCUCUGGAUUCCUCGUCACUCAGCAGGGCAUCUCUGAGAGAAAUGCC ? 1.08

Quick one: self-cleavage for UACGUAGGUGGUUUUCCCCUGAUAGUGCUAAGGGGGCCUGGAAGUUUGGACUGGGCAGAGCUCAACACAGCGCGGCAAAGUGGCUGUGGCUAGACUGCCUCUCUGGAUUCCUCGUCACUCAGCAGGGCAUCCCUGAGAGAAAUGCC ? 2.09

Quick one: self-cleavage for UACGUAGGUGGCUUUCCCCUGAUAGUGCUAAGGGGGCCUGGAAGUUUGGUCUGGGCAGAGCUCAACACAGCGUGGCAAAGUGGCUGUGGCUAGACUGCCUCUCUGGAUUCCUCGUCACUCAGCAGGGCAUCUCUGAGAGAAAUGCC ? 1.54
